Just for reference, patent US9523100B2 is where these values come from.

System: Green Peach Aphid (GPA) (Myzus persicae) (MYZUPE)
Test protocol: Bioassay for Green Peach Aphid (GPA), foliar spray on cabbage seedlings
Type: in vivo
Conditions used: 72 h, 200 ppm foliar spray on cabbage seedlings, graded after three days, Abbott corrected % control, read-out: GPA 200 ppm, % Control (or Mortality) rating
List of mortality at 200 ppm values.

Answered examples (4):
CCN1CC(CCCC(=O)N(CC)c2cn(-c3cccnc3)nc2Cl)C1=O (centres unmarked) = 80 to 100%
CN(C(=O)CCN1CCCCC1=O)c1cn(-c2cccnc2)nc1Cl = 80 to 100%
CCN(C(=O)CC/C(=N\OCCCC(F)(F)F)c1cccs1)c1cn(-c2cccnc2)nc1Cl = 0 to 80%
O=C(CCC(=O)N(CC1CC1)c1cn(-c2cccnc2)nc1Cl)N1CCCC1 = 0 to 80%

Now for the molecule whose mortality at 200 ppm we want.
stdin: # input molecule: CN(C(=O)CCC(=O)N1CCCC1)c1cn(-c2cccnc2)nc1Cl ; wanted: its mortality at 200 ppm
stdout: 0 to 80%

====

System: Sweetpotato Whitefly-Crawler (WF) (Bemisia tabaci) (BEMITA)
Test protocol: Insecticidal test for Sweetpotato Whitefly-Crawler (WF) in foliar spray assay on cotton plants
Format: in vivo
Conditions used: 216 h, 200 ppm foliar spray on cotton plants, graded after 9 days, Abbott corrected % control, read-out: WF 200 ppm, % Control (or Mortality) rating
Quantity kind: mortality at 200 ppm

Answered examples (4):
CCN(C(=O)CCN(C)C(=O)CCC(F)(F)F)c1cn(-c2cccnc2)nc1Cl = 80 to 100%
CCN(C(=O)CCn1ccc(C(C)=O)n1)c1cn(-c2cccnc2)nc1Cl = 80 to 100%
CCN(C(=O)C(C)C/C=N\OCCC1CC1(F)F)c1cn(-c2cccnc2)nc1Cl (centres unmarked) = 80 to 100%
CCN(C(=O)CC/C(C)=N/OCCC1CC1(F)F)c1cn(-c2cccnc2)nc1Cl (centres unmarked) = 80 to 100%

Now for the compound whose mortality at 200 ppm we want.
stdin: # input compound: CCN(C(=O)C1CCN(C(=O)CC(F)(F)F)CC1)c1cn(-c2cccnc2)nc1Cl ; wanted: its mortality at 200 ppm
stdout: 0 to 80%

====

List of mortality at 200 ppm values.
Test system: Green Peach Aphid (GPA) (Myzus persicae) (MYZUPE)
Test protocol: Bioassay for Green Peach Aphid (GPA), foliar spray on cabbage seedlings
Type: in vivo
Conditions used: 72 h, 200 ppm foliar spray on cabbage seedlings, graded after three days, Abbott corrected % control, read-out: GPA 200 ppm, % Control (or Mortality) rating

Answered examples (3):
CC(=O)CCC(=O)N(C)c1cn(-c2cccnc2)nc1C [FA69] = 0 to 80%
CCN(C(=O)CCNCC(F)F)c1cn(-c2cccnc2)nc1Cl [Compound C14] = 80 to 100%
CCN(C(=O)C1CCCN(C(=O)OC(C)(C)C)C1)c1cn(-c2cccnc2)nc1Cl (stereo not drawn) [FA18] = 80 to 100%

Now for the molecule whose mortality at 200 ppm we want.
stdin: # input molecule: CCN(C(=O)CCNC(=O)C1CC1(F)F)c1cn(-c2cccnc2)nc1Cl (stereo not drawn) [Compound F56] ; wanted: its mortality at 200 ppm
stdout: 80 to 100%

====

System: Sweetpotato Whitefly-Crawler (WF) (Bemisia tabaci) (BEMITA)
Test protocol: Insecticidal test for Sweetpotato Whitefly-Crawler (WF) in foliar spray assay on cotton plants
Type: in vivo
Conditions used: 216 h, 200 ppm foliar spray on cotton plants, graded after 9 days, Abbott corrected % control, read-out: WF 200 ppm, % Control (or Mortality) rating
Quantity kind: mortality at 200 ppm

Answered examples (5):
CCN(C(=O)CCC(=O)NCCF)c1cn(-c2cccnc2)nc1Cl [Compound F43] = 80 to 100%
CCN(C(=O)C1CCCN(C(=O)CC(F)(F)F)C1)c1cn(-c2cccnc2)nc1Cl (stereo not drawn) [FA42] = 0 to 80%
O=C(CCC(=O)N(CC1CC1)c1cn(-c2cccnc2)nc1Cl)N1CCCC1 [Compound F95] = 0 to 80%
CCN(C(=O)CCC(=O)NCC1CCCCC1)c1cn(-c2cccnc2)nc1Cl [Compound F15] = 80 to 100%
CCN(C(=O)CCn1ccc(/C(C)=N/OC)n1)c1cn(-c2cccnc2)nc1Cl [FA1] = 80 to 100%

stdin: # input molecule: CCN(C(=O)CCC(=O)N1CCCCC1)c1cn(-c2cccnc2)nc1Cl [Compound F21] ; wanted: its mortality at 200 ppm
stdout: 80 to 100%

stdin: Next entry: CCN(C(=O)CC1CCN(CC(F)(F)F)C1=O)c1cn(-c2cccnc2)nc1Cl (stereo not drawn) [FA65]
stdout: 80 to 100%

stdin: Next entry: CN(C(=O)CN1CCCCCC1=O)c1cn(-c2cccnc2)nc1Cl [Compound F22]
stdout: 80 to 100%

stdin: Next entry: CCN(C(=O)CCNCC(F)F)c1cn(-c2cccnc2)nc1Cl [Compound C14]
stdout: 80 to 100%

====

List of mortality at 200 ppm values.
Tested on: Green Peach Aphid (GPA) (Myzus persicae) (MYZUPE)
Test protocol: Bioassay for Green Peach Aphid (GPA), foliar spray on cabbage seedlings
Assay type: in vivo
Conditions used: 72 h, 200 ppm foliar spray on cabbage seedlings, graded after three days, Abbott corrected % control, read-out: GPA 200 ppm, % Control (or Mortality) rating

CON=C(C)CCC(=O)N(C)c1cn(-c2cccnc2)nc1Cl (mixture of isomers) = 80 to 100%
CCN(C(=O)C(C)C/C(C)=N/OCCC1CC1(F)F)c1cn(-c2cccnc2)nc1Cl (centres unmarked) = 80 to 100%
CCN(C(=O)CCNC(=O)OC(C)(C)C)c1cn(-c2cccnc2)nc1Cl = 80 to 100%
CCN(C(=O)C1CN(C(=O)CC(F)(F)F)C1)c1cn(-c2cccnc2)nc1Cl = 80 to 100%

stdin: # input molecule: CCN(C(=O)CCC(=O)N1CCCCCC1)c1cn(-c2cccnc2)nc1Cl ; wanted: its mortality at 200 ppm
stdout: 0 to 80%

stdin: Next entry: CCN(C(=O)C1CCN(C(=O)C(F)(F)F)C1)c1cn(-c2cccnc2)nc1Cl (centres unmarked)
stdout: 80 to 100%

====

List of mortality at 200 ppm values.
System: Sweetpotato Whitefly-Crawler (WF) (Bemisia tabaci) (BEMITA)
Test protocol: Insecticidal test for Sweetpotato Whitefly-Crawler (WF) in foliar spray assay on cotton plants
Assay type: in vivo
Conditions used: 216 h, 200 ppm foliar spray on cotton plants, graded after 9 days, Abbott corrected % control, read-out: WF 200 ppm, % Control (or Mortality) rating

Answered examples (10):
CCN(C(=O)CCN(C)C(=O)N(C)C)c1cn(-c2cccnc2)nc1Cl = 80 to 100%
CCN(C(=O)CCC1CN(Cc2ccc(C(F)(F)F)cc2)C1=O)c1cn(-c2cccnc2)nc1Cl (stereo not drawn) = 80 to 100%
CCN1CC(CC(=O)N(CC)c2cn(-c3cccnc3)nc2Cl)C1=O (stereo not drawn) = 80 to 100%
CN(C(=O)[C@H]1C=C[C@@H](NC(=O)OC(C)(C)C)C1)c1cn(-c2cccnc2)nc1Cl = 80 to 100%
CCN(C(=O)CC1CN(Cc2ccc(C(F)(F)F)nc2)C1=O)c1cn(-c2cccnc2)nc1Cl (stereo not drawn) = 80 to 100%
CCN(C(=O)C1CCCCN1C(C)=O)c1cn(-c2cccnc2)nc1Cl (stereo not drawn) = 0 to 80%
CCN(C(=O)CCCN1CCCC1=O)c1cn(-c2cccnc2)nc1Cl = 80 to 100%
CCN1CC(CCCC(=O)N(CC)c2cn(-c3cccnc3)nc2Cl)C1=O (stereo not drawn) = 80 to 100%
CCN(C(=O)C(C)Cl)c1cn(-c2cccnc2)nc1Cl (stereo not drawn) = 80 to 100%
CCN(C(=O)CC/C(=N\OCC1CC1(F)F)c1cccs1)c1cn(-c2cccnc2)nc1Cl (stereo not drawn) = 0 to 80%

Now for the compound whose mortality at 200 ppm we want.
stdin: Sweetpotato Whitefly-Crawler (WF) (Bemisia tabaci) (BEMITA) / mortality at 200 ppm / CCN(C(=O)CCC(=O)CCC(F)(F)F)c1cn(-c2cccnc2)nc1Cl : value?
stdout: 80 to 100%

====

Test system: Green Peach Aphid (GPA) (Myzus persicae) (MYZUPE)
Test protocol: Bioassay for Green Peach Aphid (GPA), foliar spray on cabbage seedlings
Type: in vivo
Conditions used: 72 h, 200 ppm foliar spray on cabbage seedlings, graded after three days, Abbott corrected % control, read-out: GPA 200 ppm, % Control (or Mortality) rating
Quantity kind: mortality at 200 ppm

CCN(C(=O)CN1CCSC1=O)c1cn(-c2cccnc2)nc1Cl [Compound F10] = 0 to 80%

stdin: # input compound: CCN1CC(CC(=O)N(CC)c2cn(-c3cccnc3)nc2Cl)C1=O (centres unmarked) [Compound F84] ; wanted: its mortality at 200 ppm
stdout: 80 to 100%

stdin: Next entry: CCN(C(=O)CCNC(=O)CC1CC1)c1cn(-c2cccnc2)nc1Cl [Compound F75]
stdout: 80 to 100%
